Target: Fuc(a1-2)[GalNAc(a1-3)]Gal(b1-4)GlcNAc(b1-6)GalNAc
Assay: glycan array binding signal (z-score within array); higher = stronger binding
Details: glycan notation: IUPAC condensed, linker removed
The full list was thinned out, with the strongest signals kept by preference.
List of glycan array binding signal (z-score) values.

Record request: glycan array binding signal (z-score) value, item DC-ASGPR Long (Homo sapiens) (protein) MTRTYENFQYLENKVKVQGFKNGPLPLQSLLQRLRSGPCHLLLSLGLGLLLLVIICVVGFQNSKFQRDLVTLRTDFSNFTSNTVAEIQALTSQGSSLEETIASLKAEVEGFKQERQAGVSELQEHTTQKAHLGHCPHCPSVCVPVHSEMLLRVQQLVQDLKKLTCQVATLNNNASTEGTCCPVNWVEHQDSCYWFSHSGMSWAEAEKYCQLKNAHLVVINSREEQNFVQKYLGSAYTWMGLSDPEGAWKWVDGTDYATGFQNWKPGQPDDWQGHGLGGGEDCAHFHPDGGWNDDVCQRPYHWVCEAGLGQTSQESH
5.11

Record request: glycan array binding signal (z-score) value, item Clec12b (Mus musculus), Q149M0 (protein) MSDEVTYATLMLQDSARVRGNQDGNNLRKEGHPAQSSLWRGAALSLMTLCLVLVTGLVTLATMFLQVSNDINSDSEKLSQLQKSIHPQQDNLSESLNSSRKSLTEESLQSQISALLERQEQMATKLCKEFLIHASDHKCNPCPKTWQWYGNSCYYFSINEEKSWSDSRKDCIDKNATLVKIDSTEERDLLQSQLSLTFSFFWLGLSWNSSGRNWLWEDGSFPPPTLFSDKELASFNGSRDCAYFERGNIYASRCSAEIPWICEKTASLVKTEDLD
0.308

Record request: glycan array binding signal (z-score) value, item SynCAM (Mus musculus) (protein) MASAVLPSGSQCAAAAAVAAAAAPPGLRLRLLLLLLSAAALIPTGDGQNLFTKDVTVIEGEVATISCQVNKSDDSVIQLLNPNRQTIYFRDFRPLKDSRFQLLNFSSSELKVSLTNVSISDEGRYFCQLYTDPPQESYTTITVLVPPRNLMIDIQKDTAVEGEEIEVNCTAMASKPATTIRWFKGNKELKGKSEVEEWSDMYTVTSQLMLKVHKEDDGVPVICQVEHPAVTGNLQTQRYLEVQYKPQVHIQMTYPLQGLTREGDAFELTCEAIGKPQPVMVTWVRVDDEMPQHAVLSGPNLFINNLNKTDNGTYRCEASNIVGKAHSDYMLYVYDPPTTIPPP
-0.149

Record request: glycan array binding signal (z-score) value, item MXA PilAct-eGFP (Myxococcus xanthus), Q59589 (protein) MRVSRFNPRNRGFTLIELMIVVAIIGILAAIAIPNFIKFQARSKQSEAKTNLKALYTAQKSFFSEKDRYSDFANEIGFAPERGNRYGYRVSAAAGDCEVRNAADLPVPAAGVPCISNDSFRFGANSAIDDPTPVVARFVPQGAAGWNTTLGVQPTIADCPNCNFFAGARGNADNEATFDDWVIAGFEGSGQVGPCSEAGNVASGTPYNTRNDVACDGAAQ
0.269

Record request: glycan array binding signal (z-score) value, item DC-ASGPR L+GEE (Homo sapiens) (protein) MTRTYENFQYLENKVKVQGFKNGPLPLQSLLQRLRSGPCHLLLSLGLGLLLLVIICVVGFQNSKFQRDLVTLRTDFSNFTSNTVAEIQALTSQGSSLEETIASLKAEVEGFKQERQAGVSELQEHTTQKAHLGHCPHCPSVCVPVHSEMLLRVQQLVQDLKKLTCQVATLNNNGEEASTEGTCCPVNWVEHQDSCYWFSHSGMSWAEAEKYCQLKNAHLVVINSREEQNFVQKYLGSAYTWMGLSDPEGAWKWVDGTDYATGFQNWKPGQPDDWQGHGLGGGEDCAHFHPDGRWNDDVCQRPYHWVCEAGLGQTSQESH
3.41

From: the supplement of paper PMC8728848
